target_system: human GPR55 (Homo sapiens, UniProt Q9Y2T6)
Construct: β-galactosidase enzyme fragment (PathHunter complementation tag)
Sequence (Q9Y2T6 whole entry, the tested form may be a part): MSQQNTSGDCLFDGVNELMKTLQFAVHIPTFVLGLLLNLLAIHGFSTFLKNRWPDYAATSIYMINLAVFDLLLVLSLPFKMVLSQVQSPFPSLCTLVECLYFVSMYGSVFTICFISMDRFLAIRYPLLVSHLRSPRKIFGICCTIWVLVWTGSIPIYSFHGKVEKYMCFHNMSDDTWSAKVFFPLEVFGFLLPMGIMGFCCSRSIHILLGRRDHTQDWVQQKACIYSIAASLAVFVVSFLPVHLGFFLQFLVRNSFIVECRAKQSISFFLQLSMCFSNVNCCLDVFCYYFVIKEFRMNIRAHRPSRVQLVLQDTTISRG
experiment_description: β-Arrestin recruitment assay (PathHunter) at GPR55
Assay type: cell-based
condition_summary: Human GPR55 IC50, β-arrestin assay, antagonist mode
pIC50: −log10 of the molar value.
So I've got a bunch of molecules here, and I need their pIC50 values.

Summary for this molecule, `CCCCCn1cc(C(=O)C23CC4CC(CC(C4)C2)C3)c2ccccc21` : pIC50 is ~5.00

Summary for this molecule, `CCCCCn1cc(C(=O)Nc2ccccc2)c2ccccc21` : pIC50 is < 5.00

Summary for this molecule, `CC1(C)C(C(=O)c2cn(CCCC(F)(F)F)c3ccccc23)C1(C)C` : pIC50 is 5.34

Summary for this molecule, `O=C(NCc1ccccc1)c1cn(CCCCCF)c2ccccc12` : pIC50 is < 5.00

Summary for this molecule, `O=C(c1cn(CCCCCF)c2ccccc12)C12CC3CC(CC(C3)C1)C2` : pIC50 is ~5.00

Summary for this molecule, `CCCCCn1cc(C(=O)NCc2ccccc2)c2ccccc21` : pIC50 is < 5.00

Summary for this molecule, `CC1(C)C(C(=O)c2cn(Cc3ccc(F)cc3)c3ccccc23)C1(C)C` : pIC50 is ~5.00

Summary for this molecule, CCCC(F)Cn1cc(C(=O)C2C(C)(C)C2(C)C)c2ccccc21 (stereo not drawn) [Compound 39, XLR-11-2-fluoropentyl-isomer] : pIC50 is 5.24
